Data origin, for the record: patent US20210079074A1

The entries below come with measured OD450 values attached.
targetOrSystem: T1, recombinant MS4A4A soluble polypeptide JS1
T1 construct: also called JS1.His; loop grafted antigen
testProtocol: ELISA, 1 ug/ml antibody
endpointLabel: OD450

anti-MS4A4A antibody 4A-346 (antibody, human IgG1, V domains shown, humanized 4A-21; human IgG1/kappa) VH: QVQLVQSGAEVKKPGASVKVSCKASGYIFTSYGLSWVRQAPGQGLEWMGWINTYSGVPTYAQKFQGRVTMTRDTSTSTVYMELSSLRSEDTAVYYCARSLVDYWGQGTLVTVSS VL: DIVMTQTPLSLSVTPGQPASISCKSSQSLLYSDGKTYLSWYLQKPGQPPQLLIYLVSKLDSGVPDRFSGSGSGTDFTLKISRVEAEDVGVYYCWQGIDFHQTFGGGTKVEIK : 0.148
anti-MS4A4A antibody 4A-345 (antibody, human IgG1, V domains shown, humanized 4A-21; human IgG1/kappa) VH: QVQLVQSGAEVKKPGASVKVSCKASGYIFTSYGLSWVRQAPGQRLEWMGWINTYSGVPTYSQKFQGRVTITRDTSASTAYMELSSLRSEDTAVYYCARSLVDYWGQGTLVTVSS VL: DIVMTQTPLSLSVTPGQPASISCKSSQSLLYSDGKTYLSWYLQKPGQPPQLLIYLVSKLDSGVPDRFSGSGSGTDFTLKISRVEAEDVGVYYCWQGIDFHQTFGGGTKVEIK : 0.132
anti-MS4A4A antibody 4A-337 (antibody, human IgG1, V domains shown, humanized 4A-21; human IgG1/kappa) VH: QVQLVQSGSELKKPGASVKVSCKASGYIFTSYGLSWVRQAPGQGLEWMGWINTYSGVPTYAQGFTGRFVFSLDTSVSTTYLQISSLKAEDTAVYYCARSLVDYWGQGTLVTVSS VL: DIVMTQTPLSSPVTLGQPASISCKSSQSLLYSDGKTYLSWLQQRPGQPPRLLIYLVSKLDSGVPDRFSGSGAGTDFTLKISRVEAEDVGVYYCWQGIDFHQTFGGGTKVEIK : 1.33
anti-MS4A4A antibody 4A-342 (antibody, human IgG1, V domains shown, humanized 4A-21; human IgG1/kappa) VH: QIQLVQSGAEVKKPGASVKVSCKASGYIFTSYGLSWVRQAPGQGLEWMGWINTYSGVPTYAQKFQGRVTMTRDTSTSTVYMELSSLRSEDTAVYYCARSLVDYWGQGTLVTVSS VL: DVVMTQTPLSLSVTPGQPASISCKSSQSLLYSDGKTYLSWYLQKPGQPPQRLIYLVSKLDSGVPDRFSGSGSGTDFTLKISRVEAEDVGVYYCWQGIDFHQTFGGGTKVEIK : 1.09
anti-MS4A4A antibody 4A-341 (antibody, human IgG1, V domains shown, humanized 4A-21; human IgG1/kappa) VH: QVQLVQSGAEVKKPGASVKVSCKASGYIFTSYGLSWVRQAPGQRLEWMGWINTYSGVPTYSQKFQGRVTITRDTSASTAYMELSSLRSEDTAVYYCARSLVDYWGQGTLVTVSS VL: DVVMTQTPLSLSVTPGQPASISCKSSQSLLYSDGKTYLSWYLQKPGQPPQLLIYLVSKLDSGVPDRFSGSGSGTDFTLKISRVEAEDVGVYYCWQGIDFHQTFGGGTKVEIK : 0.162
anti-MS4A4A antibody 4A-310 (antibody, human IgG1, V domains shown, human IgG1/kappa) VH: EVQLVQSGAEVKKPGESLKISCKGSGYTFTNYWMQWVRQMPGKGLEWMGATHPGHGDTRYSPSFQGQVTISADKSSSTAYLQWSSLKASDTAMYYCAREEVYYGFRSYWYFDVWGRGTLVTVSS VL: DIVMTQSPDSLAVSLGERATINCRASESVDNYGVSFMNWYQQKPGQPPKLLIYGASNQGSGVPDRFSGSGSGTDFTLTISSLQAEDVAVYYCQQSKEVPPTFGGGTKVEIK : 0.118
anti-MS4A4A antibody 4A-307 (antibody, human IgG1, V domains shown, human IgG1/kappa) VH: QVQLVQSGAEVKKPGASVKVSCKASGYTFTNYWMQWVRQAPGQGLEWMGATHPGHGDTRYAQKFQGRVTMTADKSTSTVYMELSSLRSEDTAVYYCAREEVYYGFRSYWYFDVWGRGTLVTVSS VL: DIVMTQSPDSLAVSLGERATINCRASESVDNYGVSFMNWYQQKPGQPPKLLIYGASNQGSGVPDRFSGSGSGTDFTLTISSLQAEDVAVYYCQQSKEVPPTFGGGTKVEIK : 0.126
anti-MS4A4A antibody 4A-344 (antibody, human IgG1, V domains shown, humanized 4A-21; human IgG1/kappa) VH: QVQLVQSGAEVKKPGASVKVSCKASGYIFTSYGLSWVRQAPGQGLEWMGWINTYSGVPTYAQKFQGRVTMTRDTSTSTVYMELSSLRSEDTAVYYCARSLVDYWGQGTLVTVSS VL: DVVMTQTPLSLSVTPGQPASISCKSSQSLLYSDGKTYLSWYLQKPGQPPQRLIYLVSKLDSGVPDRFSGSGSGTDFTLKISRVEAEDVGVYYCWQGIDFHQTFGGGTKVEIK : 0.719
anti-MS4A4A antibody 4A-305 (antibody, human IgG1, V domains shown, human IgG1/kappa) VH: EVQLVQSGAEVKKPGATVKISCKVSGYTFTNYWMQWVQQAPGKGLEWMGATHPGHGDTRYAEKFQGRVTITADTSTDTAYMELSSLRSEDTAVYYCAREEVYYGFRSYWYFDVWGRGTLVTVSS VL: DIVMTQSPDSLAVSLGERATINCRASESVDNYGVSFMNWYQQKPGQPPKLLIYGASNQGSGVPDRFSGSGSGTDFTLTISSLQAEDVAVYYCQQSKEVPPTFGGGTKVEIK : 0.116
anti-MS4A4A antibody 4A-338 (antibody, human IgG1, V domains shown, humanized 4A-21; human IgG1/kappa) VH: QVQLVQSGSELKKPGASVKVSCKASGYIFTSYGLSWVRQAPGQGLEWMGWINTYSGVPTYAQGFTGRFVFSLDTSVSTTYLQISSLKAEDTAVYYCARSLVDYWGQGTLVTVSS VL: DVVMTQTPLSSPVTLGQPASISCKSSQSLLYSDGKTYLSWLQQRPGQPPRLLIYLVSKLDSGVPDRFSGSGAGTDFTLKISRVEAEDVGVYYCWQGIDFHQTFGGGTKVEIK : 1.65
